# ASSAY: Quantitative highthroughput screen to assess conditional lethalithy of NOMO1 cells grown in RPMI1640 with dialyzed fetal bovine serum (RPMI+ds) (AID 1963877); also: nearly all actives have a fitted effect of over 30% in size;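 as to viability: 100% = DMSO control wells and 0% = empty wells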
# MEASUREMENT_SETUP: NOMO1 in RPMI+dialyzed FBS viability, ATP luminescence, 48 h; series mostly up to 45.8 µM
Results filed as inconclusive are left out. Calls of active or inactive are those of the source. Calls follow the shape of the dose curve; as a rule, active = well fitted cell-killing curve with a large enough effect; inconclusive = small, poorly fitted or top-dose-only effect; inactive = flat fitted curve, though single readings scatter.
Give one outcome, nothing more. List: yes (1) for active, no (0) for inactive

A selection of reference data follows.
C[C@H](NC(=O)C(C#N)=Cc1cccc(Br)n1)c1ccccc1	yes (1)
CCOc1cc2ncc(C#N)c(Nc3ccc(OCc4ccccn4)c(Cl)c3)c2cc1NC(=O)C=CCN(C)C	yes (1)
O=[N+]([O-])c1cn2c(n1)OC[C@@H](OCc1ccc(OC(F)(F)F)cc1)C2	no (0)
O=C(O)c1cccnc1	yes (1)
O=C1NC(=O)C(c2cnc3ccccn23)=C1c1cn2c3c(cccc13)CN(C(=O)N1CCOCC1)CC2	no (0)

I would be grateful if you could indicate the recorded call for C=CC(=O)Nc1cccc(Nc2nc(NC3CCC(N(C)C)CC3)nc3c2ncn3C(C)C)c1 (stereo not given) .
yes (1)

I would be grateful if you could indicate the recorded call for "CO[C@H]1C=CO[C@@]2(C)Oc3c(C)c(O)c4c(O)c(c5c(c4c3C2=O)NC2(CCN(CC(C)C)CC2)N=5)=NC(=O)C(C)=CC=C[C@H](C)[C@H](O)[C@@H](C)[C@@H](O)[C@@H](C)[C@H](OC(C)=O)[C@H]1C" .
no (0)

I would be grateful if you could indicate the recorded call for "CNC(=O)c1ccc(N2C(=S)N(c3cnc(C#N)c(C(F)(F)F)c3)C(=O)C23CCC3)cc1F" .
yes (1)

I would be grateful if you could indicate the recorded call for COC(=O)C1=C(C)NC(C)=C(C(=O)OCCN2CCN(C(c3ccccc3)c3ccccc3)CC2)C1c1cccc([N+](=O)[O-])c1 (stereo not given) .
no (0)

I would be grateful if you could indicate the recorded call for "O=C(C=CC#Cc1cccc(NS(=O)(=O)c2ccccc2)c1)NO" .
yes (1)

I would be grateful if you could indicate the recorded call for "CCCc1nn(C)c2c(=O)[nH]c(-c3cc(S(=O)(=O)N4CCN(C)CC4)ccc3OCC)nc12" .
no (0)

I would be grateful if you could indicate the recorded call for N[C@H]1CN(c2c(F)cc3c(=O)c(C(=O)O)cn(C4C[C@@H]4F)c3c2Cl)CC12CC2 (stereo not given in full) .
no (0)

I would be grateful if you could indicate the recorded call for "Cc1nc(NC(=O)N2CCC[C@@H]2C(N)=O)sc1-c1csc(C(C)(C)C)n1" .
yes (1)

I would be grateful if you could indicate the recorded call for "NC[C@H](O)c1ccc(O)c(O)c1" .
no (0)

I would be grateful if you could indicate the recorded call for "CCCCc1oc2ccccc2c1C(=O)c1cc(I)c(OCCN(CC)CC)c(I)c1" .
yes (1)

---

# ASSAY: Viability qHTS for spleen associated tyrosine kinase inhibitor (SYKi) naive MV4-11 cells (AID 1963823); also: nearly all actives have a fitted effect of over 40% in size
# MEASUREMENT_SETUP: MV4-11 AML viability, CellTiter-Glo luminescence, 72 h; series mostly up to 45 µM
Inconclusive results are not listed. Activity calls are given as the source filed them. Calls follow the shape of the dose curve; as a rule, active = well fitted cell-killing curve with a large enough effect; inconclusive = small, poorly fitted or top-dose-only effect, or effect the other way; inactive = no such curve, though single readings can be large or run the other way.
Give one outcome, nothing more. List: active, inactive

COc1cc(CCC2=NN=C(NC(=O)c3ccc(N4C[C@@H](C)N[C@@H](C)C4)cc3)C2)cc(OC)c1	active
CCC(=O)N1CCc2cc(OC)c(O)cc2C1	inactive
CSc1ccc(/C=C2/C(C)=C(CC(=O)O)c3cc(F)ccc32)cc1	inactive
Cc1cnc(CNC(=O)c2c(=O)c3ccc(N4CCCN(C)CC4)nc3n3c2sc2ccccc23)cn1	active
CC(=O)c1cc2c(cc1O)OC(C)(C)C=C2	inactive
CCCCOC(=O)CC(CC(=O)OCCCC)(OC(C)=O)C(=O)OCCCC	inactive
CN(CCO)C1CCN(c2ccc(Nc3ncc4c5ccnc(F)c5n(C5CCCC5)c4n3)nc2)CC1	active
CCCCCCCCCCC(CO)CCCCCCCC (stereo not given)	inactive

I would be grateful if you could indicate the recorded call for "Cc1c(C(=O)Nc2ccc(N3CCC(N4CCOCC4)CC3)c(C#N)c2)cnn1-c1ccc(Cl)cc1" .
active

I would be grateful if you could indicate the recorded call for "C=CC(=O)N1CCC[C@H](n2c(=O)n(-c3ccc(Oc4ccccc4)cc3)c3c(N)ncnc32)C1" .
active
